This collection of values is drawn from BindingDB's records for doi:10.1021/acs.jmedchem.5b01148.

Experiment: Inhibition of matriptase (unknown origin) using Ac-RQFRpNA substrate by spectrophotometry method
Bridge positions count the residues as written; N and C are the ends. Peptide text beside a SMILES is read from it.
property_name: Ki

Use the examples below as a reference point.
>  <compound>
CC[C@H](C)[C@@H]1NC(=O)[C@@H]2CCCN2C(=O)[C@@H]2CCCN2C(=O)[C@H]([C@@H](C)CC)NC(=O)[C@H](CO)NC(=O)[C@H](CCCNC(=N)N)NC(=O)[C@H]([C@@H](C)O)NC(=O)[C@@H]2CSSC[C@H](NC1=O)C(=O)N[C@@H](Cc1ccccc1)C(=O)N1CCC[C@H]1C(=O)N[C@H](C(=O)O)CC(=O)NCC(=O)N[C@@H](CCCNC(=N)N)C(=O)N2 (GRCTRSIPPICFPD-OH; disulfide 3-11; lactam N-14)

>  <Ki>
546 nM

$$$$
>  <compound>
C[C@@H](O)[C@@H]1NC(=O)[C@@H](NC(=O)[C@H](CCCNC(=N)N)NC(=O)CN)CSSC[C@@H](C(=O)N[C@@H](Cc2cnc[nH]2)C(=O)O)NC(=O)[C@H](CCCNC(=N)N)NC(=O)[C@@H]2CCCN2C(=O)[C@@H]2CCCN2C(=O)[C@H](CC(=O)O)NC(=O)[C@H](CO)NC(=O)[C@H](CCCCN)NC1=O (H-GRCTKSDPPRCH-OH; disulfide 3-11)

>  <Ki>
87 nM

$$$$
>  <compound>
CC[C@H](C)[C@@H]1NC(=O)[C@@H]2CCCN2C(=O)[C@@H]2CCCN2C(=O)[C@H](Cc2ccc(O)cc2)NC(=O)[C@H](CO)NC(=O)[C@H](CCCNC(=N)N)NC(=O)[C@H]([C@@H](C)O)NC(=O)[C@@H]2CSSC[C@H](NC1=O)C(=O)N[C@@H](Cc1ccccc1)C(=O)N1CCC[C@H]1C(=O)N[C@H](C(=O)O)CC(=O)NCC(=O)N[C@@H](CCCNC(=N)N)C(=O)N2 (GRCTRSYPPICFPD-OH; disulfide 3-11; lactam N-14)

>  <Ki>
> 50000 nM

$$$$

Now take the following compound into account.
The compound listed as CC[C@H](C)[C@@H]1NC(=O)[C@H](CO)NC(=O)[C@H](CCCCN)NC(=O)[C@H]([C@@H](C)O)NC(=O)[C@@H](NC(=O)[C@H](CCCNC(=N)N)NC(=O)CN)CSSC[C@@H](C(=O)N[C@@H](Cc2cnc[nH]2)C(=O)O)NC(=O)[C@H](CCCNC(=N)N)NC(=O)[C@@H]2CCCN2C(=O)[C@@H]2CCCN2C1=O (H-GRCTKSIPPRCH-OH; disulfide 3-11) shows Ki equal to 82 nM
